# Lookup of reported LC50 keyed by entry
Test system: fleas (Ctenocephalides felis)
measurement-description: In vitro evaluation of ingestion activity against fleas
condition-parameters: flea ingestion test, compound in organic bovine blood (0.5% DMSO), adult fleas, percent mortality between 2 h and 48 h post infestation, read-out: EC50 (the source's name)

Some entries whose results are on file:
> print(dat)
                                   molecule  quantity.kind  meas.value
1  Cc1cc(C2=NOC(c3cc(C(F)(F)F)cc(Cl)c3F)(C(F)(F)F)C2)ccc1C(=O)N[C@@H]1CN(CC(F)(F)F)C1=O (single isomer, unassigned)           LC50   < 1 µg/mL
2  Cc1cc(C2=NOC(c3cc(C(F)(F)F)cc(Cl)c3F)(C(F)(F)F)C2)ccc1C(=O)NN1CCN(CC(F)(F)F)C1=O (racemic)           LC50   < 3 µg/mL

Request the reported LC50 associated with CO[C@H]1C[C@@H](NC(=O)c2ccc(C3=NOC(c4cc(C(F)(F)F)cc(Cl)c4F)(C(F)(F)F)C3)cc2C)C1 (mixture of isomers) < 3 µg/mL

---

System: fleas (Ctenocephalides felis)
measurement-description: In vitro evaluation of ingestion activity against fleas
condition-parameters: flea ingestion test, compound in organic bovine blood (0.5% DMSO), adult fleas, percent mortality between 2 h and 48 h post infestation, read-out: EC50 (the source's name)
quantity-kind: LC50

Some entries whose results are on file:
> print(dat)
                                   compound  quantity.kind  meas.value
1  Cc1cc(C2=NOC(c3cc(C(F)(F)F)cc(Cl)c3F)(C(F)(F)F)C2)ccc1C(=O)NCC(=O)NCC1CC1 (racemic)           LC50   < 1 µg/mL
2  Cc1cc(C2=NOC(c3cc(C(F)(F)F)cc(Cl)c3F)(C(F)(F)F)C2)ccc1C(=O)N[C@H]1C[C@@H](S(C)(=O)=O)C1 (single isomer, unassigned)           LC50   < 1 µg/mL
3  CCN1C[C@@H](NC(=O)c2ccc(C3=NOC(c4cc(C(F)(F)F)cc(Cl)c4F)(C(F)(F)F)C3)cc2C)CC1=O (single isomer, unassigned)           LC50   < 1 µg/mL
4  Cc1cc(C2=NO[C@@](c3cc(C(F)(F)F)cc(Cl)c3F)(C(F)(F)F)C2)ccc1C(=O)N[C@@H]1CC[C@H](C#N)C1 (single isomer, unassigned)           LC50   < 1 µg/mL
5  Cc1cc(C2=NOC(c3cc(C(F)(F)F)cc(Cl)c3F)(C(F)(F)F)C2)ccc1C(=O)NC1CC2(COC2)C1 (single isomer, unassigned)           LC50   < 1 µg/mL

Request the reported LC50 associated with Cc1cc(C2=NOC(c3cc(C(F)(F)F)cc(Cl)c3F)(C(F)(F)F)C2)ccc1C(=O)N[C@@H]1CNC(=O)C1 (single isomer, unassigned) < 1 µg/mL

Request the reported LC50 associated with O=C(CNC(=O)c1ccc(C2=NOC(c3cc(C(F)(F)F)cc(Cl)c3F)(C(F)(F)F)C2)c2ccccc12)NCC(F)(F)F (centres unmarked) < 1 µg/mL

Request the reported LC50 associated with Cc1cc(C2=NOC(c3cc(C(F)(F)F)cc(Cl)c3F)(C(F)(F)F)C2)ccc1C(=O)N[C@H]1CNC(=O)C1 (single isomer, unassigned) < 1 µg/mL

Request the reported LC50 associated with Cc1cc(C2=NOC(c3cc(C(F)(F)F)cc(Cl)c3F)(C(F)(F)F)C2)ccc1C(=O)NC1CS(=O)(=O)C1 (single isomer, unassigned) < 1 µg/mL

Request the reported LC50 associated with Cc1cc(C2=NOC(c3cc(C(F)(F)F)cc(Cl)c3F)(C(F)(F)F)C2)ccc1C(=O)N[C@@H]1CCN(CC(F)(F)F)C1 (single isomer, unassigned) < 1 µg/mL

Request the reported LC50 associated with Cc1cc(C2=NOC(c3cc(C(F)(F)F)cc(Cl)c3F)(C(F)(F)F)C2)ccc1C(=O)NN1CCNC1=O (racemic) < 3 µg/mL

---

measurement-description: PK determination following administration to beagle dogs
Assay type: in vivo
condition-parameters: beagle, dog, in vivo
quantity-kind: clearance (mL/h/kg)
Hi! Could you send only the number? It should be in mL/h/kg, unit omitted.

> print(dat)
                                   molecule  quantity.kind  meas.value
1  CS(=O)(=O)CC(=O)N1CC2(C1)OCc1cc(C3=NO[C@](c4cc(C(F)(F)F)cc(C(F)F)c4F)(C(F)(F)F)C3)ccc12      clearance        2.36
2  O=C(CNC(=O)c1ccc(C2=NOC(c3cc(C(F)(F)F)cc(Cl)c3F)(C(F)(F)F)C2)c2ccccc12)NCC(F)(F)F (stereo not shown)      clearance        2.31
3  Cc1cc(C2=NOC(c3cc(C(F)(F)F)cc(Cl)c3F)(C(F)(F)F)C2)sc1C(=O)NCC(=O)NCC(F)(F)F (stereo not shown)      clearance        2.36

Request the reported clearance associated with Cc1cc(C2=NOC(c3cc(C(F)(F)F)cc(Cl)c3F)(C(F)(F)F)C2)ccc1C(=O)NCC(=O)NCC(F)(F)F (stereo not shown) 2.55

---

System: fleas (Ctenocephalides felis)
measurement-description: In vitro evaluation of ingestion activity against fleas
condition-parameters: flea ingestion test, compound in organic bovine blood (0.5% DMSO), adult fleas, percent mortality between 2 h and 48 h post infestation, read-out: EC50 (the source's name)
Method: In Vitro Evaluation of Ingestion Activity Against Fleas (Ctenocephalides felis) For flea ingestion tests, serial dilutions of the compound stock were performed using DMSO to achieve the desired range for EC50 and EC90 determination. […] Fleas were evaluated for percent mortality at various time points between 2 h and 48 h post infestation. Fleas showing normal movement and/or jumping ability were considered viable and those showing no movement after tapping the vials were scored as dead.
# Lookup of reported LC50 keyed by entry

> print(dat)
                                   compound                         target  quantity.kind  meas.value
1  Cc1cc(C2=NOC(c3cc(C(F)(F)F)cc(Cl)c3F)(C(F)(F)F)C2)ccc1C(=O)NC1CN(S(=O)(=O)N(C)C)C1 (single isomer, unassigned)  fleas (Ctenocephalides felis)           LC50   < 1 µg/mL

We next turn to a different compound, shown below.
Request the reported LC50 associated with Cc1cc(C2=NOC(c3cc(C(F)(F)F)cc(Cl)c3F)(C(F)(F)F)C2)ccc1C(=O)N[C@@H]1CNC1=O (single isomer, unassigned) < 1 µg/mL

---

Tested on: fleas (Ctenocephalides felis)
measurement-description: In vitro evaluation of ingestion activity against fleas
condition-parameters: flea ingestion test, compound in organic bovine blood (0.5% DMSO), adult fleas, percent mortality between 2 h and 48 h post infestation, read-out: EC50 (the source's name)
# Lookup of reported LC50 keyed by entry

compound	LC50
Cc1cc(C2=NOC(c3cc(C(F)(F)F)cc(Cl)c3F)(C(F)(F)F)C2)ccc1C(=O)NC1CN(C(N)=O)C1 (single isomer, unassigned) [Example 3.71]	< 1 µg/mL
Cc1cc(C2=NOC(c3cc(C(F)(F)F)cc(Cl)c3F)(C(F)(F)F)C2)ccc1C(=O)NCc1nc(C#N)cs1 (racemic) [Example 3.23]	< 1 µg/mL
Cc1cc(C2=NOC(c3cc(C(F)(F)F)cc(Cl)c3F)(C(F)(F)F)C2)ccc1C(=O)NC1CCN(C2CC2)C1=O (racemic) [Example 3.15]	< 3 µg/mL

We next turn to a different compound, shown below.
Request the reported LC50 associated with Cc1cc(C2=NOC(c3cc(C(F)(F)F)cc(Cl)c3F)(C(F)(F)F)C2)ccc1C(=O)NC1CSC1 (single isomer, unassigned) [Example 3.51] < 1 µg/mL

---

Test system: fleas (Ctenocephalides felis)
measurement-description: In vitro evaluation of ingestion activity against fleas
condition-parameters: flea ingestion test, compound in organic bovine blood (0.5% DMSO), adult fleas, percent mortality between 2 h and 48 h post infestation, read-out: EC50 (the source's name)
quantity-kind: LC50

Some entries whose results are on file:
> print(dat)
                                   compound                         target  quantity.kind  meas.value
1  Cc1cc(C2=NOC(c3cc(C(F)(F)F)cc(Cl)c3F)(C(F)(F)F)C2)ccc1C(=O)N[C@H]1CC[C@H](C#N)CC1 (single isomer, unassigned)  fleas (Ctenocephalides felis)           LC50   < 3 µg/mL
2  Cc1cc(C2=NOC(c3cc(C(F)(F)F)cc(Cl)c3F)(C(F)(F)F)C2)ccc1C(=O)N[C@@H]1CCN(CC#N)C1 (single isomer, unassigned)  fleas (Ctenocephalides felis)           LC50   < 1 µg/mL
3  Cc1cc(C2=NOC(c3cc(C(F)(F)F)cc(Cl)c3F)(C(F)(F)F)C2)ccc1C(=O)N[C@H]1CN(CC(F)(F)F)C1=O (single isomer, unassigned)  fleas (Ctenocephalides felis)           LC50   < 3 µg/mL

We next turn to a different compound, shown below.
Form: Entry = Cc1cc(C2=NOC(c3cc(C(F)(F)F)cc(Cl)c3F)(C(F)(F)F)C2)ccc1C(=O)NC1C[S+]([O-])C1 (single isomer, unassigned) | System = fleas (Ctenocephalides felis) | LC50 = ____ < 1 µg/mL
